# MIC per record follows
# System: Enterobacter cloacae
# protocolDetails: Antibacterial activity tested against Enterobacter cloacae OMNFI 174
# Assay type: functional
metricName: MIC (µg/mL)

[[record]]
compound = "Cc1c(N2CCSCC2)c(N)cc2c(=O)c(C(=O)O)cn(C3CC3)c12"
systemundertest = "Enterobacter cloacae"
metricname = "MIC"
readoutunits = "µg/mL"
qual = "="
valuereported = 0.25

[[record]]
compound = "Cc1c(N2CCN(C)CC2)c(N)cc2c(=O)c(C(=O)O)cn(-c3ccc(F)cc3)c12"
systemundertest = "Enterobacter cloacae"
metricname = "MIC"
readoutunits = "µg/mL"
qual = "="
valuereported = 16

[[record]]
compound = "Cc1c(N2CC(C)NC(C)C2)c(N)cc2c(=O)c(C(=O)O)cn(C3CC3)c12 (centres undefined)"
systemundertest = "Enterobacter cloacae"
metricname = "MIC"
readoutunits = "µg/mL"
qual = "="
valuereported = 0.5

[[record]]
compound = "Cc1c(N2CCC(C)CC2)c(N)cc2c(=O)c(C(=O)O)cn(C3CC3)c12"
systemundertest = "Enterobacter cloacae"
metricname = "MIC"
readoutunits = "µg/mL"
qual = "="
valuereported = 0.5

[[record]]
compound = "Cc1c(N2CCC3CCCCC3C2)c(N)cc2c(=O)c(C(=O)O)cn(C3CC3)c12 (centres undefined)"
systemundertest = "Enterobacter cloacae"
metricname = "MIC"
readoutunits = "µg/mL"
qual = "="
valuereported = 4

[[record]]
compound = "Cc1c(N2CCN(C)CC2)c(N)cc2c(=O)c(C(=O)O)cn(-c3ccc(O)cc3)c12"
systemundertest = "Enterobacter cloacae"
metricname = "MIC"
readoutunits = "µg/mL"
qual = "="
valuereported = 8

[[record]]
compound = "Cc1c(N2CCC(O)CC2)c(N)cc2c(=O)c(C(=O)O)cn(C3CC3)c12"
systemundertest = "Enterobacter cloacae"
metricname = "MIC"
readoutunits = "µg/mL"
qual = "="
valuereported = 0.5

[[record]]
compound = "Cc1c(N2CCc3ccccc3C2)c([N+](=O)[O-])cc2c(=O)c(C(=O)O)cn(C3CC3)c12"
systemundertest = "Enterobacter cloacae"
metricname = "MIC"
readoutunits = "µg/mL"
qual = "="
valuereported = 64

[[record]]
compound = "Cc1c(N2CC3CCC2CC3)c(N)cc2c(=O)c(C(=O)O)cn(C3CC3)c12"
systemundertest = "Enterobacter cloacae"
metricname = "MIC"
readoutunits = "µg/mL"
qual = "="
valuereported = 4

[[record]]
compound = "Cc1c(N2CCCCC2)c(N)cc2c(=O)c(C(=O)O)cn(C3CC3)c12"
systemundertest = "Enterobacter cloacae"
metricname = "MIC"
readoutunits = "µg/mL"
qual = "="
valuereported = 0.25

[[record]]
compound = "CN1CCN(c2cc3c(cc2N)c(=O)c(C(=O)O)cn3C2CC2)CC1"
systemundertest = "Enterobacter cloacae"
metricname = "MIC"
readoutunits = "µg/mL"
qual = "="
valuereported = 0.25

[[record]]
compound = "Cc1c(N2CCC(C)CC2)c([N+](=O)[O-])cc2c(=O)c(C(=O)O)cn(C3CC3)c12"
systemundertest = "Enterobacter cloacae"
metricname = "MIC"
readoutunits = "µg/mL"
qual = "="
valuereported = 64

[[record]]
compound = "Cc1c(N2CCCC(C)(C)C2)c(N)cc2c(=O)c(C(=O)O)cn(C3CC3)c12"
systemundertest = "Enterobacter cloacae"
metricname = "MIC"
readoutunits = "µg/mL"
qual = "="
valuereported = 16

[[record]]
compound = "CC1CN(c2cc3c(cc2N)c(=O)c(C(=O)O)cn3C2CC2)CCS1 (centres undefined)"
systemundertest = "Enterobacter cloacae"
metricname = "MIC"
readoutunits = "µg/mL"
qual = "="
valuereported = 0.5

[[record]]
compound = "Nc1cc2c(=O)c(C(=O)O)cn(C3CC3)c2cc1N1CCNCC1"
systemundertest = "Enterobacter cloacae"
metricname = "MIC"
readoutunits = "µg/mL"
qual = "="
valuereported = 0.25

[[record]]
compound = "Cc1c(N2CCNCC2)c(N)cc2c(=O)c(C(=O)O)cn(C3CC3)c12"
systemundertest = "Enterobacter cloacae"
metricname = "MIC"
readoutunits = "µg/mL"
qual = "="
valuereported = 0.06

[[record]]
compound = "Cc1c(N2CCCC2)c(N)cc2c(=O)c(C(=O)O)cn(C3CC3)c12"
systemundertest = "Enterobacter cloacae"
metricname = "MIC"
readoutunits = "µg/mL"
qual = "="
valuereported = 64

[[record]]
compound = "Cc1c(N2CCN(C)CC2)c([N+](=O)[O-])cc2c(=O)c(C(=O)O)cn(C3CC3)c12"
systemundertest = "Enterobacter cloacae"
metricname = "MIC"
readoutunits = "µg/mL"
qual = "="
valuereported = 8

[[record]]
compound = "Cc1c(N2CCCC(C)C2)c(N)cc2c(=O)c(C(=O)O)cn(C3CC3)c12 (centres undefined)"
systemundertest = "Enterobacter cloacae"
metricname = "MIC"
readoutunits = "µg/mL"
qual = "="
valuereported = 1

[[record]]
compound = "Cc1c(N2CCOCC2)c(N)cc2c(=O)c(C(=O)O)cn(C3CC3)c12"
systemundertest = "Enterobacter cloacae"
metricname = "MIC"
readoutunits = "µg/mL"
qual = "="
valuereported = 0.125

[[record]]
compound = "COc1ccc(-n2cc(C(=O)O)c(=O)c3cc(N)c(N4CCN(C)CC4)c(C)c32)cc1"
systemundertest = "Enterobacter cloacae"
metricname = "MIC"
readoutunits = "µg/mL"
qual = ">"
valuereported = 128

[[record]]
compound = "CC1CN(c2cc3c(cc2N)c(=O)c(C(=O)O)cn3C2CC2)CC(C)(C)N1 (centres undefined)"
systemundertest = "Enterobacter cloacae"
metricname = "MIC"
readoutunits = "µg/mL"
qual = "="
valuereported = 0.5

[[record]]
compound = "Nc1cc2c(=O)c(C(=O)O)cn(C3CC3)c2cc1N1CCc2ccccc2C1"
systemundertest = "Enterobacter cloacae"
metricname = "MIC"
readoutunits = "µg/mL"
qual = "="
valuereported = 128

[[record]]
compound = "Cc1c(N2CC(C)OC(C)C2)c(N)cc2c(=O)c(C(=O)O)cn(C3CC3)c12 (centres undefined)"
systemundertest = "Enterobacter cloacae"
metricname = "MIC"
readoutunits = "µg/mL"
qual = "="
valuereported = 1

